assay: yeast display, Sf9 membrane polyspecificity reagent, FACS + sequencing; frameworks hold sequencing errors
endpointLabel: polyreactivity (PSR sort gate)

| biosequence | observed |
| --- | --- |
| QVQLVEAGGGLVQAGGSLRLSCAASGLIFWAYAMGWYRQAPGKERELVAAINWRGGSTYYADSVKGRFTISRDNAKNTVDLQMNSLKPEDTAVYYCADDSYYDEYDYLGQGTQVTVSS | low polyreactivity |
| QVQLVESGGGLVQAGGSLRLSCAASGITFVRYAMGWYRQAPGKEREFVAAINSIVGRTYYADSVKGRFTISRDNAKNTVYLQMNSLKPEDTAVYYCAADSNVRYGMDYWGQGTQVTVSS | low polyreactivity |
| QVQLVESGGGLVQAGGSLRLSCAASGSIFYSNAMGWYRQAPGKERELVAAISGSGGTTYYADSVKGRFTISRDNAKNTVYIQMNSLKPEDTAVYYCAAKPRVRVRLSDYWGQGTQVTVSS | high polyreactivity |
| QVQLVESGGCLVQAGGSLRLICAASGGLFGTYTMGWYRQAPGKERELVAAIRSSSGRTYYADSVKGRFTISRDNAKNTVYLQMNILKPEDTAVYYCNAKYYGYRVGKYYPFGYWGQGTQVTVSS | high polyreactivity |
| QVQLQESGGGQVQAGGSLRLSCAASGYISTHYFMGWYRQAPGKDREFVAGISNGSITNYADSVKGRFTISRDNARNTVYLQMNSLKPEDTAVYYGAAYDWTYVRFGYWGQGTQVTVSG | high polyreactivity |

Lookup result for QVQLVESGGGVVQAGGTLRLSCAASGSTFPKYAMGWYRQAPGKERELVAAISLSGVRTYYADSVKGRFTISRDNAKNTVYLQMTSLKPEDTAVYYCNAVFDRYPYRYDYWGQGTQVTVSS ; measured polyreactivity (PSR sort gate): high polyreactivity

Item: QVQLVESGGGLVQAGGTLRLSCAASGIIFDRNVMGWYRQAPGKERELVAAITRNGGNTYYADSVKGRFTISRDNAKNTVYLQLNSLKPEDTAVYYCNAKYWPFSRWYYFWGQRTQVTVSS | polyreactivity (PSR sort gate): high polyreactivity

The reported polyreactivity (PSR sort gate) of the sequence QVQLVESGGGLVQAGGSLRLSCAASGFIYKINAMGWYRQAPGKERELVARITSGGRTNYADSVKGRFTISRDNAKNTVYLQMDSLKPEDTAVYYCAARYLAYGPTGYLYGYNYWGQGTQVTVSS was high polyreactivity

The sequence QVQLVESGGGLVQAGGSLRLSCAASGSTSLGYAMGWYRQAPGKERELVASISWTGGGTYYADSVKGRFTLSRDNAKNTVYLQMNSLKPDDTAVYYCAADLTGYHPYIYGYWGQGTQVTVSS showed polyreactivity (PSR sort gate) equal to low polyreactivity

Documented polyreactivity (PSR sort gate) of QVQLVESGGGLVQAGGSLRLSCAASGRTFFYAMGWYRQAPGKEREFVAAISWSGGSTYYADSVKGRFTISRDNAKNTVYLQMNSLKPEDTAVYYCNKVGYYGVGTSQEFDYWGQGTQVTVSS : high polyreactivity

Form field polyreactivity (PSR sort gate), entry QDQLVESGGGLVQAGGSLRLSCAASGSTFKYYAMGWYRQAPGKERELVAAISWTGGSTYYADSVKGRFTISRDNAKNTVYLQMNSLKPEDTAVYYCNAMGHVQGYDYWGQVTQVTVSS : high polyreactivity
